Molecular target: Acetylcholine-binding protein (Lymnaea stagnalis)
Test: acetylcholine-binding protein ligand affinity – biochemical, Lymnaea stagnalis, His-tagged, [125I]alpha-bungarotoxin (AID 743369); call rule not given here
Conditions: Purified AChBP, [125I]-alpha-bungarotoxin displacement, filtration
Your response should consist of one outcome taken from active, inactive

compound	category_label
COc1cc(CCN)c2c(c1OC)SSSSS2	active

Would you kindly look at the next entry?
State the result this test recorded for COc1cc2c3c(ccnc3c1OC)NC=C2 .
active

----------
Biological target: Acetylcholine-binding protein (Lymnaea stagnalis) (UniProt P58154)
Sequence (P58154 whole entry, looked up): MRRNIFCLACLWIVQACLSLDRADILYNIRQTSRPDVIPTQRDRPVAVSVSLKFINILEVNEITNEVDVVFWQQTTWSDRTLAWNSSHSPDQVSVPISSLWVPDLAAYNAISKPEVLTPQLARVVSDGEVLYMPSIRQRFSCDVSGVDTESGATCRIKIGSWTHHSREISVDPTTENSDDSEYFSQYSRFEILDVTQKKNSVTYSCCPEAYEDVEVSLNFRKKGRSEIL
Assay: acetylcholine-binding protein ligand affinity – biochemical, Lymnaea stagnalis, His-tagged, [125I]alpha-bungarotoxin (AID 743369)
Conditions: Purified AChBP, [125I]-alpha-bungarotoxin displacement, filtration
Calls of active or inactive are those of the source. No rule for the calls is given here.
Your response should consist of one outcome taken from true (1) = active, false (0) = inactive

Sample answers from the record:
compound	category_label
C[C@@H](N)[C@H](O)CCCCCCCC(=O)CCCCCCCCCCCCCC[C@@H](O[C@@H]1O[C@H](CO)[C@H](O)[C@H](O)[C@H]1O)[C@@H](C)N	true (1)
COn1c(Br)c2c3c(cccc31)[C@H]1C[C@@H](C)CN(C)[C@@H]1C2	true (1)
CC/C=C/[C@@H]1CC[C@]2(C[C@H]3CC[C@H]4[C@@H](C(=O)OC(CC)CCCCCCCCCCCCC[C@@H]5O[C@](O)(CCN)[C@H](O)N(CCCN)C5=O)[C@@]5(CCC[C@H](C)O5)NC(=[N+]34)N2)O1 (some centres undefined)	true (1)

Would you kindly look at the next entry?
State the result this test recorded for NC1=N/C(=C2/CCNC(=O)c3[nH]ccc32)C(=O)N1 .
false (0)
